Target: AktK (Homo sapiens, UniProt P31749)
Sequence (P31749 whole entry): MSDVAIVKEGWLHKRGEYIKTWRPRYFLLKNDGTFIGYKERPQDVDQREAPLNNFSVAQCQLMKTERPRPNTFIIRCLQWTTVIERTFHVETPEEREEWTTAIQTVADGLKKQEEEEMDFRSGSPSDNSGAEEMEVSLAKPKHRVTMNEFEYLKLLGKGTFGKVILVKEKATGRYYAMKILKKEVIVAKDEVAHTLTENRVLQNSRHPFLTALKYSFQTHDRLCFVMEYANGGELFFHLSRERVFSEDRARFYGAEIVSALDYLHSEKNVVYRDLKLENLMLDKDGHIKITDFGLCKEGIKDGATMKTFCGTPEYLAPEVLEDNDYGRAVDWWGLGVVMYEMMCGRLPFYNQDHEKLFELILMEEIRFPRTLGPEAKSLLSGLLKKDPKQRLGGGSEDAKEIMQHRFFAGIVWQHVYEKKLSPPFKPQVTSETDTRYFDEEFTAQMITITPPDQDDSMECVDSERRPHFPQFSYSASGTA
Test: Luciferase-coupled chemiluminescence kinase assay (ATP consumption)
Type: biochemical
Details: Table 1; class symbols per key; read-out: AKT-1 IC50

{"smilesInput": "Cc1ccc(-c2ccccc2OCCCN(C)C)cc1N1CCN(c2ncnc3[nH]nc(Br)c23)CC1", "IC50": "< 100 nM"}
{"smilesInput": "CCN(CC)CCCOc1nc(Cl)c(C)c(N2CCN(c3ncnc4[nH]nc(Br)c34)CC2)n1", "IC50": "1000 to 10000 nM"}
{"smilesInput": "Cc1c(NCCN2CCCC2)cc(C#CC(C)(C)C)cc1N1CCN(c2ncnc3[nH]nc(Br)c23)CC1", "IC50": "< 100 nM"}
{"smilesInput": "Cc1c(NCCN2CCCC2)cc(OCC(C)(C)F)cc1N1CCN(c2ncnc3[nH]nc(Br)c23)CC1", "IC50": "< 100 nM"}
{"smilesInput": "Cc1ccc(C(=O)NCc2ccccc2)cc1N1CCN(c2ncnc3[nH]nc(Br)c23)C[C@@H]1C", "IC50": "1000 to 10000 nM"}
{"smilesInput": "CCc1n[nH]c2ncnc(N3CCN(c4cccc(OCCN(CC)CC)c4C)CC3)c12", "IC50": "1000 to 10000 nM"}
{"smilesInput": "Clc1ccc(N2CCN(c3ncnc4[nH]nc(Br)c34)CC2)cc1", "IC50": "≥ 10000 nM"}
{"smilesInput": "CCc1n[nH]c2ncnc(N3CCN(c4nccc5ccccc45)CC3)c12", "IC50": "≥ 10000 nM"}
{"smilesInput": "Cc1c(NCCN2CCCC2)cc(C(=O)Nc2cccnc2)cc1N1CCN(c2ncnc3[nH]nc(Br)c23)CC1", "IC50": "< 100 nM"}
{"smilesInput": "CCCCC(=O)c1cc(NCCN2CCCC2)c(C)c(N2CCN(c3ncnc4[nH]nc(Br)c34)CC2)c1", "IC50": "< 100 nM"}
{"smilesInput": "C#Cc1cc(NCCN2CCCC2)c(C)c(N2CCN(c3ncnc4[nH]nc(Br)c34)CC2)c1", "IC50": "< 100 nM"}
{"smilesInput": "O=C(COc1cccc(N2CCN(c3ncnc4[nH]nc(Br)c34)CC2)c1)NC1CC1", "IC50": "1000 to 10000 nM"}
{"smilesInput": "CCc1n[nH]c2ncnc(N3CCN(c4cc(Cl)cc(OCCCN5CCOCC5)c4C)CC3)c12", "IC50": "1000 to 10000 nM"}
{"smilesInput": "Clc1ccc(Cl)c(N2CCN(c3ncnc4[nH]nc(Br)c34)CC2)c1", "IC50": "≥ 10000 nM"}
{"smilesInput": "Cc1c(OCCN2CCOCC2)cc(Cl)cc1N1CCN(c2ncnc3[nH]nc(C(F)(F)F)c23)CC1", "IC50": "1000 to 10000 nM"}
{"smilesInput": "CCN(CC)CCOc1cc(Cl)cc(N2CCN(c3ncnc4c3c(C(F)(F)F)nn4C(C)(C)C)CC2)c1C", "IC50": "1000 to 10000 nM"}
{"smilesInput": "Cc1c(NCCN2CCCC2)cc(CO)cc1N1CCN(c2ncnc3[nH]nc(Br)c23)CC1", "IC50": "100 to 1000 nM"}
{"smilesInput": "Cc1c(CCCN2CCCC2)cc(Cl)cc1N1CCN(c2ncnc3[nH]nc(C(F)(F)F)c23)CC1", "IC50": "< 100 nM"}
{"smilesInput": "CCc1n[nH]c2ncnc(N3CCN(c4cc(F)ccc4F)CC3)c12", "IC50": "≥ 10000 nM"}
{"smilesInput": "Cc1c(NCCN2CCCC2)cc(OC(F)F)cc1N1CCN(c2ncnc3[nH]nc(Br)c23)CC1", "IC50": "< 100 nM"}
{"smilesInput": "Cc1c(OCC2CCN(C)CC2)cc(Cl)cc1N1CCN(c2ncnc3[nH]nc(Br)c23)CC1", "IC50": "< 100 nM"}
{"smilesInput": "CCCC(=O)c1cc(NCCN2CCCC2)c(C)c(N2CCN(c3ncnc4[nH]nc(Br)c34)CC2)c1", "IC50": "< 100 nM"}

---

Target: AktK (Homo sapiens)
Assay: Luciferase-coupled chemiluminescence kinase assay (ATP consumption)
Assay type: biochemical
Details: Table 1; class symbols per key; read-out: AKT-1 IC50
valueKind: IC50

{"compound": "Cc1c(OCCN2CCCC2)cc(Cl)cc1N1CCN(c2ncnc3[nH]nc(C(C)C)c23)CC1 [Entry 137]", "valueKind": "IC50", "result": "1 to 10 µM"}
{"compound": "CCN1CCN(CCOc2cc(Cl)cc(N3CCN(c4ncnc5[nH]nc(Br)c45)CC3)c2C)CC1 [Entry 74]", "valueKind": "IC50", "result": "< 0.1 µM"}
{"compound": "CC(=O)c1cc(NCCN2CCCC2)c(C)c(N2CCN(c3ncnc4[nH]nc(Br)c34)CC2)c1 [Entry 252]", "valueKind": "IC50", "result": "< 0.1 µM"}
{"compound": "Cc1c(OCCN2CCCC2)cc(Cl)cc1N1CCN(c2ncnc3[nH]nc(C(F)(F)F)c23)CC1 [Entry 39]", "valueKind": "IC50", "result": "0.1 to 1 µM"}
{"compound": "Cc1c(NCCN2CCCC2)cc(C(=O)O)cc1N1CCN(c2ncnc3[nH]nc(Br)c23)CC1 [Entry 234]", "valueKind": "IC50", "result": "1 to 10 µM"}
{"compound": "CCN1CCN(CCCOc2cc(Cl)cc(N3CCN(c4ncnc5[nH]nc(C(F)(F)F)c45)CC3)c2C)CC1 [Entry 71]", "valueKind": "IC50", "result": "0.1 to 1 µM"}

---

Biological target: p70S6K (Homo sapiens, UniProt P23443)
Sequence (P23443 whole entry): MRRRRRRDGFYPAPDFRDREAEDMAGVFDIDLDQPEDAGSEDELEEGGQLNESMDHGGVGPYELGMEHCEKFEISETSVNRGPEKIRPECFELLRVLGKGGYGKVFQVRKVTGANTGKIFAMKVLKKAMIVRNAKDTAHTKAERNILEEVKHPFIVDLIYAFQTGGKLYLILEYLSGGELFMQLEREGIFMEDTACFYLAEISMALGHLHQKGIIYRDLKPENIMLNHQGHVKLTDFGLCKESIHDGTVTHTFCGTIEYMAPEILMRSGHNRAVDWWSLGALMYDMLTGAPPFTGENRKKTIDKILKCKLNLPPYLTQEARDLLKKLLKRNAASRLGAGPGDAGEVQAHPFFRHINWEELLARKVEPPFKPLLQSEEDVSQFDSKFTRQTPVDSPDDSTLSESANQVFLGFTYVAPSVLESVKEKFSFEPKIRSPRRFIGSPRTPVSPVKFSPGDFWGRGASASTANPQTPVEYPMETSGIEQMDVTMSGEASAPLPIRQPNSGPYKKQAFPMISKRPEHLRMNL
Test: Luciferase-coupled chemiluminescence kinase assay (ATP consumption)
Assay type: biochemical
Conditions: Table 1; class symbols per key
pIC50: −log10 of the molar value.
valueKind: pIC50

{"smilesInput": "Cc1c(Br)cc(OCC(F)(CF)CF)cc1N1CCN(c2ncnc3[nH]nc(Br)c23)CC1", "result": "> 7.00"}
{"smilesInput": "CCCCC(=O)c1cc(NCCN2CCCC2)c(C)c(N2CCN(c3ncnc4[nH]nc(CC)c34)CC2)c1", "result": "> 7.00"}
{"smilesInput": "Cc1noc(-c2cc(NCCN3CCCC3)c(C)c(N3CCN(c4ncnc5[nH]nc(Br)c45)CC3)c2)n1", "result": "> 7.00"}
{"smilesInput": "CCN1CCN(CCOc2cc(Cl)cc(N3CCN(c4ncnc5[nH]nc(C(F)(F)F)c45)CC3)c2C)CC1", "result": "> 7.00"}
{"smilesInput": "FC(F)(F)c1cnc(N2CCN(c3ncnc4[nH]nc(Br)c34)CC2)c(Cl)c1", "result": "5.00 to 6.00"}
{"smilesInput": "Cc1ccc(C(=O)NCC(C)C)cc1N1CCN(c2ncnc3[nH]nc(Cl)c23)CC1", "result": "> 7.00"}
{"smilesInput": "CCC(CC)COc1cc(NCCN2CCCC2)c(C)c(N2CCN(c3ncnc4[nH]nc(Br)c34)CC2)c1", "result": "> 7.00"}
{"smilesInput": "CCN(CC)CCCOc1nc(Cl)c(C)c(N2CCN(c3ncnc4[nH]nc(Br)c34)CC2)n1", "result": "6.00 to 7.00"}
